System under test: Tyrosine-protein kinase SYK (Homo sapiens)
# IC50 per record follows
Observable: IC50 (nM)

1. Cc1ccc(C(=O)Nc2cccc(C(F)(F)F)c2)cc1-c1ccc2nc(NCCN3CCOCC3)ncc2c1    292
2. CNc1ncc2cc(-c3cc(C(=O)Nc4cc(C(F)(F)F)ccc4OC4CCN(C)CC4)ccc3C)ccc2n1    1110

* * *

Test system: Mus musculus
Test name: Unbound plasma concentration in po dosed BALB/c mouse
Assay type: ADME, organism-based
pEC50: −log10 of the molar value.
Observable: pEC50

1. Cc1ccc(C(=O)Nc2cccc(C(F)(F)F)c2)cc1-c1ccc2nc(NCCN3CCOCC3)ncc2c1    7.74
